These data points were gathered from patent US9220264B2.

- Tested on: Clinical Escherichia coli DU46381R Source: Urine
- Format: cell-based
- Procedure: MICs was determined by broth macrodilution method modified from that described by the National Committee for Clinical Laboratory Standards (NCCL). […] The MIC of V2 dimer peptide for each clinical isolate or reference organism was read as the lowest concentration of peptide that inhibited visible growth of the test organism. The MIC was also determined for other peptides and compared to gentamicin.
Peptide text beside a SMILES is read from it.
Reported MIC values for a set of compounds
Give the value, in units of µg/mL, as a plain number.

INSERT INTO results (compound, assayed_system, measured_value) VALUES
  ('N=C(N)NCCC[C@H](NC(=O)CNC(=O)[C@@H](N)CCCNC(=N)N)C(=O)N[C@@H](CCCCN)C(=O)N[C@@H](Cc1ccc(O)cc1)C(=O)N[C@@H](Cc1ccc(O)cc1)C(=O)N[C@@H](CCCNC(=N)N)C(=O)N[C@@H](CCCNC(=N)N)C(=O)N[C@@H](Cc1ccc(O)cc1)C(=O)N[C@@H](Cc1ccc(O)cc1)C(=O)O [Y4 monomer, RGRKYYRRYY] (H-RGRKYYRRYY-OH; N-terminus and C-terminus assumed)', 'Clinical Escherichia coli DU46381R Source: Urine', 12.5);

Consider the compound shown here: CC(C)[C@H](NC(=O)[C@H](CCCCN)NC(=O)[C@H](CCCNC(=N)N)NC(=O)CNC(=O)[C@@H](N)CCCNC(=N)N)C(=O)N[C@H](C(=O)N[C@@H](CCCNC(=N)N)C(=O)N[C@@H](CCCNC(=N)N)C(=O)O)C(C)C [V2-8AA, RGRKVVRR] (H-RGRKVVRR-OH; N-terminus and C-terminus assumed) What is its recorded MIC? 50

# iterate: N=C(N)NCCC[C@H](NC(=O)[C@H](CCCNC(=N)N)NC(=O)[C@H](Cc1ccc(O)cc1)NC(=O)[C@H](Cc1ccc(O)cc1)NC(=O)[C@H](CCCCN)NC(=O)[C@H](CCCNC(=N)N)NC(=O)CNC(=O)[C@@H](N)CCCNC(=N)N)C(=O)O [Y2-8AA, RGRKYYRR] (H-RGRKYYRR-OH; N-terminus and C-terminus assumed) 25

Another compound to check: N=C(N)NCCC[C@H](NC(=O)[C@H](CCCNC(=N)N)NC(=O)[C@H](Cc1c[nH]c2ccccc12)NC(=O)[C@H](Cc1c[nH]c2ccccc12)NC(=O)[C@H](CCCCN)NC(=O)[C@H](CCCNC(=N)N)NC(=O)CNC(=O)[C@@H](N)CCCNC(=N)N)C(=O)O [W2-8AA, RGRKWWRR] (H-RGRKWWRR-OH; N-terminus and C-terminus assumed) 6.25
